- Measurement Target: human PDHK2 (hPDHK2) (Homo sapiens (Human))
- Test: Inhibitory action of PDHK activity in vitro (kinase reaction, residual PDH activity measured)
- Type: biochemical
- Condition Description: read-out: PDHK inhibitory activity IC50
- Experimental: In the case of human PDHK2 (hPDHK2, Genbank Accession No. NM_002611), modified hPDHK2 cDNA wherein FLAG-Tag sequence is added to the N terminal by a polymerase linkage reaction was prepared based on hPDHK2 cDNA clone (pReceiver-M01/PDK2-GeneCopoeia), and cloned into a vector (pET17b-Novagen). The recombinant construct was transformed into Escherichia coli (DH5α-TOYOBO). The recombinant clones were identified, plasmid DNA was isolated and subjected to the DNA sequence analysis. […]
# key: entry, value: pIC50
Keep in mind that pIC50 stands for -log10 of concentration in molar terms.

Inquiry: Which value of pIC50 has been reported for NC(=O)COC1CN(C(=O)c2cc(Cl)c3c(c2)C(O)(C(F)(F)F)c2ccccc2-3)C1 (stereo not shown) [compound 349] in the records?
Reply text: 6.90

Inquiry: Which value of pIC50 has been reported for Cn1cc(-c2cc(OCC(N)=O)cc3c2-c2ccccc2C3(O)C(F)(F)F)cn1 (single isomer, unassigned) [compound 467] in the records?
Reply text: 7.74

Inquiry: Which value of pIC50 has been reported for OCC(CO)c1ncc(-c2cc(F)cc3c2-c2ccccc2C3(O)C(F)(F)F)o1 (single isomer, unassigned) [compound 682] in the records?
Reply text: 7.10

====

- Measurement Target: human PDHK2 (hPDHK2) (Homo sapiens (Human))
- Test: Inhibitory action of PDHK activity in vitro (kinase reaction, residual PDH activity measured)
- Assay type: biochemical
- Condition Description: PDHK inhibitory activity, class symbol of IC50
Measure Name: IC50

Previously resolved entries follow.
{"Compound": "CC(=O)N(C)C1CCN(C(=O)c2ccc3c(c2)C(O)(C(F)(F)F)c2ccccc2-3)C1 (stereo not drawn)", "Measurement Target": "human PDHK2 (hPDHK2) (Homo sapiens (Human))", "IC50": "100 to 1000 nM"}
{"Compound": "OCCc1ccc2c(c1)C(O)(C(F)(F)F)c1ccccc1-2 (stereo not drawn)", "Measurement Target": "human PDHK2 (hPDHK2) (Homo sapiens (Human))", "IC50": "> 1000 nM"}
{"Compound": "O=C(COc1ccc2c(c1)C(O)(C(F)(F)F)c1ccccc1-2)N1CCC[C@H]1CO (stereo partly drawn)", "Measurement Target": "human PDHK2 (hPDHK2) (Homo sapiens (Human))", "IC50": "> 1000 nM"}
{"Compound": "Oc1ccc(-c2ccc3c(c2)C(O)(C(F)(F)F)c2ccccc2-3)cc1 (stereo not drawn)", "Measurement Target": "human PDHK2 (hPDHK2) (Homo sapiens (Human))", "IC50": "100 to 1000 nM"}
{"Compound": "COC(=O)C1CCN(c2ccc3c(c2)C(O)(C(F)(F)F)c2ccccc2-3)CC1 (stereo not drawn)", "Measurement Target": "human PDHK2 (hPDHK2) (Homo sapiens (Human))", "IC50": "> 1000 nM"}
{"Compound": "O=C1CCCN1CCOc1ccc2c(c1)C(O)(C(F)(F)F)c1ccccc1-2 (stereo not drawn)", "Measurement Target": "human PDHK2 (hPDHK2) (Homo sapiens (Human))", "IC50": "100 to 1000 nM"}
{"Compound": "CN(C(=O)c1ccc2c(c1)C(O)(C(F)(F)F)c1ccccc1-2)c1ccccc1 (stereo not drawn)", "Measurement Target": "human PDHK2 (hPDHK2) (Homo sapiens (Human))", "IC50": "> 1000 nM"}
{"Compound": "O=C(c1cc(-c2cncnc2)c2c(c1)C(O)(C(F)(F)F)c1ccccc1-2)N1CCC1 (stereo not drawn)", "Measurement Target": "human PDHK2 (hPDHK2) (Homo sapiens (Human))", "IC50": "< 100 nM"}

Inquiry: Which value of IC50 has been reported for O=C(c1ccc2c(c1)C(O)(C(F)(F)F)c1ccccc1-2)N1CCCC1 (stereo not drawn) in the records?
Reply text: 100 to 1000 nM

Inquiry: Which value of IC50 has been reported for COC(=O)COc1cc(Cl)c2c(c1)C(O)(C(F)(F)F)c1ccccc1-2 (single isomer, unassigned) [compound 481] in the records?
Reply text: 100 to 1000 nM

Inquiry: Which value of IC50 has been reported for CN(CCO)C(=O)c1ccc2c(c1)C(O)(C(F)(F)F)c1ccccc1-2 (stereo not drawn) in the records?
Reply text: > 1000 nM

====

# key: entry, value: pIC50
- Measurement Target: human PDHK2 (hPDHK2) (Homo sapiens (Human), UniProt Q15119)
- Test: Inhibitory action of PDHK activity in vitro (kinase reaction, residual PDH activity measured)
- Type: biochemical
- Condition Description: read-out: PDHK inhibitory activity IC50
- Method: In the case of human PDHK2 (hPDHK2, Genbank Accession No. NM_002611), modified hPDHK2 cDNA wherein FLAG-Tag sequence is added to the N terminal by a polymerase linkage reaction was prepared based on hPDHK2 cDNA clone (pReceiver-M01/PDK2-GeneCopoeia), and cloned into a vector (pET17b-Novagen). The recombinant construct was transformed into Escherichia coli (DH5α-TOYOBO). The recombinant clones were identified, plasmid DNA was isolated and subjected to the DNA sequence analysis. […]
Keep in mind that pIC50 stands for -log10 of concentration in molar terms.

Previously resolved entries follow.
{"Compound": "CNC(=O)c1ccc(-c2ccc3c(c2)C(O)(C(F)(F)F)c2ccccc2-3)cc1 (centres unmarked)", "pIC50": 6.67}
{"Compound": "COCc1cccc2c1-c1ccccc1C2(O)C(F)(F)F (centres unmarked)", "pIC50": 4.17}
{"Compound": "COC(=O)c1cccc2c1-c1ccccc1C2(O)C(F)(F)F (centres unmarked)", "pIC50": 6.07}

In the following, a different compound is considered.
Inquiry: Which value of pIC50 has been reported for O=C(O)C1CCN(C(=O)c2ccc3c(c2)C(O)(C(F)(F)F)c2ccccc2-3)C1 (centres unmarked) in the records?
Reply text: 5.27

====

# key: entry, value: log10(IC50)
- Measurement Target: human PDHK2 (hPDHK2) (Homo sapiens (Human), UniProt Q15119)
- Test: Inhibitory action of PDHK activity in vitro (kinase reaction, residual PDH activity measured)
- Format: biochemical
- Condition Description: read-out: PDHK inhibitory activity IC50
- Procedure: In the case of human PDHK2 (hPDHK2, Genbank Accession No. NM_002611), modified hPDHK2 cDNA wherein FLAG-Tag sequence is added to the N terminal by a polymerase linkage reaction was prepared based on hPDHK2 cDNA clone (pReceiver-M01/PDK2-GeneCopoeia), and cloned into a vector (pET17b-Novagen). The recombinant construct was transformed into Escherichia coli (DH5α-TOYOBO). The recombinant clones were identified, plasmid DNA was isolated and subjected to the DNA sequence analysis. […]
In our notation, the value equals log10 of IC50 in µM.

Previously resolved entries follow.
{"Compound": "CCC(=O)Nc1ccc2c(c1)-c1ccccc1C2(O)C(F)(F)F (stereo not drawn) [compound 100]", "Measurement Target": "human PDHK2 (hPDHK2) (Homo sapiens (Human), UniProt Q15119)", "log10(IC50)": 0.79}
{"Compound": "CC(C)OC(=O)N1CCN(c2ccc3c(c2)C(O)(C(F)(F)F)c2ccccc2-3)CC1 (stereo not drawn) [compound 212]", "Measurement Target": "human PDHK2 (hPDHK2) (Homo sapiens (Human), UniProt Q15119)", "log10(IC50)": -0.16}
{"Compound": "OCc1ccccc1-c1ccc2c(c1)C(O)(C(F)(F)F)c1ccccc1-2 (stereo not drawn) [compound 189]", "Measurement Target": "human PDHK2 (hPDHK2) (Homo sapiens (Human), UniProt Q15119)", "log10(IC50)": 0.78}
{"Compound": "OC1(C(F)(F)F)c2ccccc2-c2ccc(Nc3ccccc3)cc21 (stereo not drawn) [compound 166]", "Measurement Target": "human PDHK2 (hPDHK2) (Homo sapiens (Human), UniProt Q15119)", "log10(IC50)": 0.77}

In the following, a different compound is considered.
Inquiry: Which value of log10(IC50) has been reported for CC(=O)c1cc(OCCN2CCCC2=O)cc2c1-c1ccccc1C2(O)C(F)(F)F (stereo not drawn) [compound 599] in the records?
Reply text: -1.48

====

- Measurement Target: human PDHK2 (hPDHK2) (Homo sapiens (Human), UniProt Q15119)
- Test: Inhibitory action of PDHK activity in vitro (kinase reaction, residual PDH activity measured)
- Assay type: biochemical
- Condition Description: read-out: PDHK inhibitory activity IC50
pIC50: −log10 of the molar value.
Entry flag: T if pIC50 reaches 7; F if it does not.

Below, 7 molecules whose answers are already recorded.
{"Molecule": "CN(C)C(=O)c1cccc2c1-c1ccccc1C2(O)C(F)(F)F (centres unmarked)", "Cat": "F"}
{"Molecule": "O=C(c1ccc2c(c1)C(O)(C(F)(F)F)c1ccccc1-2)c1cccs1 (centres unmarked)", "Cat": "F"}
{"Molecule": "COC(=O)c1cc(Cl)cc2c1-c1ccccc1C2(O)C(F)(F)F (centres unmarked) [compound 616]", "Cat": "F"}
{"Molecule": "Cn1cc(-c2cc(C(=O)N3CC(O)C3)cc3c2-c2ccccc2C3(O)C(F)(F)F)cn1 (centres unmarked)", "Cat": "T"}
{"Molecule": "OC1(C(F)(F)F)c2ccccc2-c2ccc(-c3ccccc3)cc21 (centres unmarked)", "Cat": "F"}
{"Molecule": "Cn1cc(-c2cc(C(N)=O)c3c(c2)C(O)(C(F)(F)F)c2ccccc2-3)cn1 (centres unmarked)", "Cat": "T"}
{"Molecule": "Cn1cc(-c2cc(OCC(=O)N3CC(CO)C3)cc3c2-c2ccccc2C3(O)C(F)(F)F)cn1 (centres unmarked) [compound 439]", "Cat": "T"}

Inquiry: Is the recorded value of pIC50 equal to or greater than 7 for this molecule? O=C(c1cc(-c2cnn(CCO)c2)c2c(c1)C(O)(C(F)(F)F)c1ccccc1-2)N1CCC1 (centres unmarked)
Reply text: T
